Target: T1, human Claudin18.2 (human, UniProt P56856-2 1-261)
T1 construct: whole, on cells; Four-transmembrane protein, always presented on cells (transfected lines or NUGC-4 with endogenous expression); also called CLDN18.2
Assay: flow cytometry on Ba/F3-Claudin18.2 cells, purified mouse antibody
Method: The affinity of the candidates to Claudin18.2 was measured using FACS. […] Ba/F3-Claudin18.1 and Ba/F3-Claudin18.2 cells were incubated with the purified mouse antibodies at various concentrations on ice for 30 min and mouse IgG was used as negative control (Thermo Fisher, Cat: 31903), followed by washing with FACS buffer (PBS+2% FBS) twice.
Measure: pEC50
Please report pEC50 as the negative decimal logarithm of the molar concentration, giving only the number.

{"Binder": "mouse antibody 19G10.14 (antibody, V domains shown, Purified from hybridoma) VH: QVQLKESGPGLVAPSQSLSITCTVSGFSFTSYGVHWVRQPPGKGLEWLGVIWAGGSTDYNAALMSRLSIRKDNSKSQVFLKMNSLQIADTAMYYCARDGHGKVGFDVWGAGTTVTVSS VL: DIVMTQSPSSLSVSAGEKVTMNCKSSQSLLNSGNQKNYLAWYQQKPGQPPKLLIYGASTRESGVPDRFTGGGSGTDFTLTISSVQAEDLAIYYCQNDHFYPFTFGSGTKLEIK", "pEC50": 7.79}

Note: attention shifts to another entry.
Please report the measured pEC50 for mouse antibody 6B9.22 (antibody, V domains shown, Purified from hybridoma) VH: QVQLQQSGAELVKPGASVKMSCKAFGYTFTSYPIEWMKQNHGKSLEWIGNFHPYNDDTKYNEKFKGKAKLTVEKSSSTVYLELSRLTSDDSAVYYCARTYYGNSFAYWGQGTLVTVSS VL: DIVMTQSPSSLTVTAGEKVTMSCKSSQSLLNSGNQKNYLTWYQQKPGQPPKLLIYWASSRDSGVPHRFTGSGSGTDFTLTISSVQAEDLAFYYCQNDYFYPFTFGAGTKLELK 8.44
